# tgt: Retinoic acid receptor RXR-alpha (Homo sapiens)
# test.description: ATG_RXRa_TRANS: Attagene TRANS-FACTORIAL HepG2 Assay for human Retinoid X Receptor alpha (RXRa) (AID 2283012)
Results filed as inconclusive are left out. Active and inactive are the calls of the source. How the source made its calls: active means hit-call score of the fitted dose curve at least 0.9, where 1 is the maximum; inconclusive means response in the unintended direction; inactive means score below 0.9.
Outcomes: 1 (yes) for active, 0 (no) for inactive

| substance.smiles | tgt | class.label |
| --- | --- | --- |
| CC(C)(O)c1ccc(CNC(=O)c2cccnc2Oc2ccc3nonc3c2)cc1 | Retinoic acid receptor RXR-alpha (Homo sapiens) | 0 (no) |
| Cc1cccc2ccccc12 | Retinoic acid receptor RXR-alpha (Homo sapiens) | 0 (no) |
| CC1(C)NC(=O)N(c2ccc([N+](=O)[O-])c(C(F)(F)F)c2)C1=O | Retinoic acid receptor RXR-alpha (Homo sapiens) | 0 (no) |
| CC(C)(c1cc(Br)c(O)c(Br)c1)c1cc(Br)c(O)c(Br)c1 | Retinoic acid receptor RXR-alpha (Homo sapiens) | 0 (no) |
| CCCCCCCC[Si](OCC)(OCC)OCC | Retinoic acid receptor RXR-alpha (Homo sapiens) | 0 (no) |
| CCCCCc1ccc(N)cc1 | Retinoic acid receptor RXR-alpha (Homo sapiens) | 0 (no) |
| COc1ccc2cc(S(=O)(=O)N[C@H](CC(=O)N[C@H](Cc3ccc(CN4[C@H](C)CCC[C@@H]4C)cc3)C(=O)N(C)C(C)C)c3ccc4c(c3)OCO4)ccc2c1 | Retinoic acid receptor RXR-alpha (Homo sapiens) | 0 (no) |
| CCO[Si](CCCNC(N)=O)(OCC)OCC | Retinoic acid receptor RXR-alpha (Homo sapiens) | 0 (no) |
| CC[C@H](NC(=O)c1cc(F)ccc1NS(=O)(=O)c1cccc2cccnc12)c1ccccc1 | Retinoic acid receptor RXR-alpha (Homo sapiens) | 0 (no) |
| Cc1cc(F)ccc1-c1cc(N2CC[C@@H](O)[C@H]2CO)ncc1N(C)C(=O)C(C)(C)c1cc(C(F)(F)F)cc(C(F)(F)F)c1 | Retinoic acid receptor RXR-alpha (Homo sapiens) | 0 (no) |
| NC(=O)c1nc(-c2cccc(-c3cc(F)ccc3OCC(F)(F)C(F)(F)F)c2)n[nH]1 | Retinoic acid receptor RXR-alpha (Homo sapiens) | 0 (no) |
| CCCCCCCCCCCO | Retinoic acid receptor RXR-alpha (Homo sapiens) | 1 (yes) |
| Cc1cn([C@H]2C[C@H](N=[N+]=[N-])[C@@H](CO)O2)c(=O)[nH]c1=O | Retinoic acid receptor RXR-alpha (Homo sapiens) | 0 (no) |
| CCCCCCCCCC(=O)O | Retinoic acid receptor RXR-alpha (Homo sapiens) | 0 (no) |
| O=C(O)Cc1cc(I)c(Oc2ccc(O)c(I)c2)c(I)c1 | Retinoic acid receptor RXR-alpha (Homo sapiens) | 0 (no) |
| CN(C)C(=O)C1(N2CCCCC2)CCN(CC[C@@]2(c3ccc(Cl)c(Cl)c3)CN(C(=O)c3ccccc3)CCO2)CC1 | Retinoic acid receptor RXR-alpha (Homo sapiens) | 0 (no) |
| CCCCCCCCCCCCO | Retinoic acid receptor RXR-alpha (Homo sapiens) | 0 (no) |
| CN(C)c1ccc(C(=C2C=CC(=[N+](C)C)C=C2)c2ccc(N(C)C)cc2)cc1 | Retinoic acid receptor RXR-alpha (Homo sapiens) | 0 (no) |
| CC(C)(C)c1cc(/C=C2\SC(N)=NC2=O)cc(C(C)(C)C)c1O | Retinoic acid receptor RXR-alpha (Homo sapiens) | 0 (no) |
| Clc1ccccc1C(c1ccccc1)(c1ccccc1)n1ccnc1 | Retinoic acid receptor RXR-alpha (Homo sapiens) | 0 (no) |
| CCCCCCCCOc1ccc(C(=O)c2ccccc2)c(O)c1 | Retinoic acid receptor RXR-alpha (Homo sapiens) | 0 (no) |
| CCCCCCCCOC(=O)c1cc(O)c(O)c(O)c1 | Retinoic acid receptor RXR-alpha (Homo sapiens) | 0 (no) |
| O=C=NCCCCCCN=C=O | Retinoic acid receptor RXR-alpha (Homo sapiens) | 0 (no) |
| O=C(Nc1ccc(Cl)cc1)Nc1ccc(Cl)c(Cl)c1 | Retinoic acid receptor RXR-alpha (Homo sapiens) | 0 (no) |
| O=c1c(-c2ccc(O)cc2)coc2cc(O)cc(O)c12 | Retinoic acid receptor RXR-alpha (Homo sapiens) | 0 (no) |
| CC/C(=C(/CC)c1ccc(O)cc1)c1ccc(O)cc1 | Retinoic acid receptor RXR-alpha (Homo sapiens) | 0 (no) |
| Cc1ncc(CO)c(CO)c1O | Retinoic acid receptor RXR-alpha (Homo sapiens) | 0 (no) |
| c1ccc2n[nH]nc2c1 | Retinoic acid receptor RXR-alpha (Homo sapiens) | 0 (no) |
| COc1cccc([C@H](O)C2CCN(CCc3ccc(F)cc3)CC2)c1OC | Retinoic acid receptor RXR-alpha (Homo sapiens) | 0 (no) |
| CCCCOC(=O)c1ccc(O)cc1 | Retinoic acid receptor RXR-alpha (Homo sapiens) | 0 (no) |

Recorded values, source PubChem BioAssay (EPA / NIEHS).
